Value source: ChEMBL document CHEMBL3804756

biological target: Histamine H4 receptor (Homo sapiens); assay: Agonist activity at human histamine H4 receptor expressed in sf9 cell membrane co-expressing mammalian Galphai2 and Gbeta1gamma2 incubated for 90 mins by [35S]GTPgammaS binding assay; format: functional
Sequence (Q9H3N8 whole entry): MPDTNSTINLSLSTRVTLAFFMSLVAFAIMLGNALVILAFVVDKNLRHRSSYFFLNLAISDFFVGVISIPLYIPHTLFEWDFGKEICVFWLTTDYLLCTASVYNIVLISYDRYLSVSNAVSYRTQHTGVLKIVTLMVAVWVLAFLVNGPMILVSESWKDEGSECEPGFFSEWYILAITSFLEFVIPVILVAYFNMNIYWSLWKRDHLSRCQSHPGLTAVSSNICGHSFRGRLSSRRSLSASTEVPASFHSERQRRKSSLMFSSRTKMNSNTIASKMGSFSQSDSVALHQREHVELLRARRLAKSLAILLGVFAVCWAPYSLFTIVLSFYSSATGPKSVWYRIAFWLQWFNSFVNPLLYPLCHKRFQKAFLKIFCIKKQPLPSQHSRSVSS
quantity.measured: log10(EC50) (log10 of the value in nM)
Hello, just confirming the data are log10 of EC50 with units of nM.

Problem: log10(EC50) for `CN/C(=N\C#N)NC[C@H]1CC[C@H](c2c[nH]cn2)C1` ?
Solution: 2.00

Problem: Also need N#C/N=C(\NC[C@H]1CC[C@H](c2c[nH]cn2)C1)NC1CC1 (racemic) , thanks.
Solution: 2.36

Problem: Also need NC[C@H]1CC[C@H](c2c[nH]cn2)C1 (racemic) , thanks.
Solution: 3.23

Problem: Also need CN/C(=N\C#N)NC[C@@H]1CC[C@H](c2c[nH]cn2)C1 (racemic) , thanks.
Solution: 2.05

Problem: Also need `CN/C(=N\C#N)NC[C@H]1CC[C@@H](c2c[nH]cn2)C1` , thanks.
Solution: 3.43
